The measured values listed here are drawn from the supplement of paper PMC9112550.

system: Escherichia coli TOP10; test: shrunken log2 fold change of peptide-encoding DNA abundance (4.5 h post-induction vs induction); higher = less antimicrobial activity (less host growth inhibition); conditions: time post-induction: 4.5 h; library: site-saturation at positions 5, 18, 19, 20
propertyLabel: shrunken log2 fold change
Number, no unit, nothing else.

Query RRIRERPPRLPRPRPRPSNMPRP yields shrunken log2 fold change of -0.683

// recorded shrunken log2 fold change for RRIRKRPPRLPRPRPRPVDSPRP : 0.134

Documented shrunken log2 fold change of RRIRSRPPRLPRPRPRPRNWPRP : 0.318

For RRIRRRPPRLPRPRPRPAFHPRP the sequence record lists shrunken log2 fold change as 0.083

shrunken log2 fold change reported for this sequence RRIRVRPPRLPRPRPRPIPDPRP : -0.0692

For this sequence ( RRIRNRPPRLPRPRPRPSQLPRP ), measured shrunken log2 fold change is 0.00155

Field shrunken log2 fold change (entry RRIRERPPRLPRPRPRPVKAPRP ) reads -0.0316

Lab book: shrunken log2 fold change of RRIRIRPPRLPRPRPRPSLTPRP noted as -1.12

###

test system: Escherichia coli TOP10; experiment: shrunken log2 fold change of peptide-encoding DNA abundance (4.5 h post-induction vs induction); higher = less antimicrobial activity (less host growth inhibition); conditions: time post-induction: 4.5 h; library: site-saturation at positions 5, 18, 19, 20;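 note: peptides expressed intracellularly from a pBAD plasmid library in pooled LB shake-flask culture, induced with 0.3% L-arabinose, DNA abundance read by NGS, three biological replicates, DESeq2 with apeglm shrinkage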
Entry flag: met if shrunken log2 fold change reaches -0.1; not met if it does not.

Query: Please check the record RRIRCRPPRLPRPRPRPQNYPRP and state if its shrunken log2 fold change is at or above -0.1.
Reply: not met

Query: Confirm if shrunken log2 fold change reported for the sequence RRIRRRPPRLPRPRPRPWPVPRP is -0.1 or above.
Reply: met

Query: Threshold query (shrunken log2 fold change >= -0.1) on RRIRMRPPRLPRPRPRPNNRPRP
Reply: met

Query: State whether the measured shrunken log2 fold change reaches -0.1, counting equality as reaching it, for RRIRNRPPRLPRPRPRPQNQPRP
Reply: not met

Query: Please tell me: is the sequence RRIRMRPPRLPRPRPRPRFLPRP at or over -0.1 in terms of shrunken log2 fold change?
Reply: met

Query: Record RRIRGRPPRLPRPRPRPSPNPRP ; criterion: shrunken log2 fold change no lower than -0.1. Met?
Reply: met

Query: Hello, I need to know if RRIRMRPPRLPRPRPRPLYPPRP has measured shrunken log2 fold change not below -0.1. Thanks!
Reply: not met

Query: Kindly determine if shrunken log2 fold change recorded for RRIRLRPPRLPRPRPRPATSPRP is above or exactly -0.1.
Reply: not met

Query: Could you verify whether the entry RRIRYRPPRLPRPRPRPVKKPRP shows shrunken log2 fold change of no less than -0.1?
Reply: met

Query: Please check the record RRIRCRPPRLPRPRPRPPCPPRP and state if its shrunken log2 fold change is at or above -0.1.
Reply: met

Query: // inclusive: shrunken log2 fold change at least -0.1? input: RRIRMRPPRLPRPRPRPMQSPRP
Reply: met

Query: Say whether RRIRPRPPRLPRPRPRPFETPRP shows shrunken log2 fold change of -0.1 or more.
Reply: not met

Query: Please indicate if the recorded shrunken log2 fold change for RRIRMRPPRLPRPRPRPCKRPRP meets or exceeds -0.1.
Reply: met

Query: Quick check: does RRIRQRPPRLPRPRPRPAGRPRP have shrunken log2 fold change greater than or equal to -0.1?
Reply: met
